Molecular target: histamine-3 (H3) receptor (Homo sapiens)
Sequence (Q9Y5N1 whole entry): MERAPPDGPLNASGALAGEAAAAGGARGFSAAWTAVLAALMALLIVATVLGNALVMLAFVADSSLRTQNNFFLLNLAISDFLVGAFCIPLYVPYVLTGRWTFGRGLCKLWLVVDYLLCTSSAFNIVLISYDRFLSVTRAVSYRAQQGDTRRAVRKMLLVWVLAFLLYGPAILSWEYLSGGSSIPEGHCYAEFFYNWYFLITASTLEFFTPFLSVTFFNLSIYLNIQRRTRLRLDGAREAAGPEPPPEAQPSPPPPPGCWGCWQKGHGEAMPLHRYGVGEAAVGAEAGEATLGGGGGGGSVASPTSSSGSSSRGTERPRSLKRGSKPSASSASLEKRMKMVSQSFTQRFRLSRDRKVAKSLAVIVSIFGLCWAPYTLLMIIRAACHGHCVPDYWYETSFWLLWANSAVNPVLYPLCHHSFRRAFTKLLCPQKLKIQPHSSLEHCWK
Assay: Methyl Histamine Binding in Human Histamine-3 Receptor Cell Line
Details: membranes of stably transfected HEK293T cells, radioligand 1 nM, Ki from IC50 by Cheng-Prusoff
pKi: −log10 of the molar value. Counter-ions that a name gives are not always drawn.
measure-name: pKi

[
  {
    "compound": "C[C@H]1CCCN1Cc1coc(-c2ccc(Cn3c(-c4ccccc4)nc4ccccc43)cc2)n1 [Example 117]",
    "observed-result": "≥ 8.00"
  },
  {
    "compound": "C[C@H]1CCCN1Cc1coc(-c2ccc(Cn3cnc4ccccc43)cc2)n1 [Example 20]",
    "observed-result": "≥ 8.00"
  },
  {
    "compound": "c1ccc2c(c1)ncn2Cc1ccc(-c2ncc(CN3CCCCCC3)o2)cc1 [Example 111]",
    "observed-result": "< 7.00"
  },
  {
    "compound": "C[C@H]1CCCN1Cc1cnc(-c2ccc(Cn3cnc4ccccc43)cc2)n1C [Example 140, fumarate salt]",
    "observed-result": "≥ 8.00"
  },
  {
    "compound": "c1ccc2c(c1)nc(-c1ccc(-c3nc(CN4CCCC4)co3)cc1)n2CCC1CCCCC1 [Example 60]",
    "observed-result": "7.00 to 7.30"
  },
  {
    "compound": "CN1CCN(Cc2coc(-c3ccc(Cn4cnc5ccccc54)cc3)n2)CC1 [Example 11]",
    "observed-result": "< 7.00"
  },
  {
    "compound": "Fc1ccc2c(cnn2Cc2ccc(-c3nc(CN4CCCC4)co3)cc2)c1 [Example 100]",
    "observed-result": "7.60 to 8.00"
  },
  {
    "compound": "c1ccc2c(c1)ncn2Cc1ccc(-c2nc(CN3CCCCC3)cs2)cc1 [Example 73]",
    "observed-result": "≥ 8.00"
  },
  {
    "compound": "c1ccc2c(c1)ncn2Cc1ccc(-c2nc(CN3CCCC3)co2)cc1 [Example 6B, Hydrochloride]",
    "observed-result": "≥ 8.00"
  },
  {
    "compound": "c1ccc2c(c1)ncn2-c1ccc(-c2nc(CN3CCCC3)co2)cc1 [Example 36]",
    "observed-result": "≥ 8.00"
  },
  {
    "compound": "C[C@H]1CCCN1Cc1cnc(-c2ccc(Cn3cnc4ccccc43)cc2)o1 [Example 106]",
    "observed-result": "≥ 8.00"
  },
  {
    "compound": "Cn1c(Cc2ccc(-c3nc(CN4CCCC4)co3)cc2)nc2ccccc21 [Example 67, Fumarate]",
    "observed-result": "≥ 8.00"
  },
  {
    "compound": "C[C@@H]1CCCN1Cc1coc(-c2ccc(Cn3ncc4ccc(F)cc43)cc2)n1 [Example 96]",
    "observed-result": "7.00 to 7.30"
  },
  {
    "compound": "CCN(CC)Cc1coc(-c2ccc(-n3cnc4ccccc43)cc2)n1 [Example 42]",
    "observed-result": "7.30 to 7.60"
  },
  {
    "compound": "FC(F)(F)c1nc2ccccc2n1Cc1ccc(-c2nc(CN3CCCC3)co2)cc1 [Example 114]",
    "observed-result": "≥ 8.00"
  },
  {
    "compound": "c1ccc2c(c1)cnn2Cc1ccc(-c2nc(CN3CCCC3)co2)cc1 [Example 88]",
    "observed-result": "7.00 to 7.30"
  },
  {
    "compound": "NCc1ccc2c(cnn2Cc2ccc(-c3nc(CN4CCCC4)co3)cc2)c1 [Example 102]",
    "observed-result": "≥ 8.00"
  },
  {
    "compound": "Cn1c(CN2CCCC2)cnc1-c1ccc(-n2cnc3ccccc32)cc1 [Example 151, fumarate salt]",
    "observed-result": "≥ 8.00"
  },
  {
    "compound": "F[C@@H]1CCN(Cc2coc(-c3ccc(Cn4cnc5ccccc54)cc3)n2)C1 [Example 21]",
    "observed-result": "7.60 to 8.00"
  },
  {
    "compound": "FC(F)(F)c1nc2ccccc2n1Cc1ccc(-c2nc(CN3CCCCC3)co2)cc1 [Example 122]",
    "observed-result": "7.60 to 8.00"
  },
  {
    "compound": "Cc1oc(-c2ccc(Cn3cnc4ccccc43)cc2)nc1CN1CCCC1 [Example 28]",
    "observed-result": "≥ 8.00"
  },
  {
    "compound": "C[C@H]1CCCN1Cc1coc(-c2ccc(Cn3ncc4ccccc43)cc2)n1 [Example 97]",
    "observed-result": "≥ 8.00"
  },
  {
    "compound": "CC1CCCN1Cc1coc(-c2ccc(Cn3cnc4ccccc43)cc2)n1 (centres unmarked) [Example 13]",
    "observed-result": "≥ 8.00"
  },
  {
    "compound": "C[C@H]1CCCN1Cc1coc(-c2ccc(Cn3c(C(F)(F)F)nc4ccccc43)cc2)n1 [Example 118]",
    "observed-result": "7.60 to 8.00"
  },
  {
    "compound": "Cn1c(CN2CCCC2)cnc1-c1ccc(-c2ccccc2)cc1 [Example 146, fumarate salt]",
    "observed-result": "< 7.00"
  },
  {
    "compound": "CN(C)Cc1coc(-c2ccc(-n3cnc4ccccc43)cc2)n1 [Example 38]",
    "observed-result": "7.60 to 8.00"
  },
  {
    "compound": "OC[C@@H]1CCCN1Cc1coc(-c2ccc(-n3cnc4ccccc43)cc2)n1 [Example 48]",
    "observed-result": "≥ 8.00"
  },
  {
    "compound": "CC1CCN(Cc2coc(-c3ccc(-n4cnc5ccccc54)cc3)n2)CC1 [Example 47]",
    "observed-result": "≥ 8.00"
  },
  {
    "compound": "OC[C@@H]1CCCN1Cc1coc(-c2ccc(Cn3cnc4ccccc43)cc2)n1 [Example 18]",
    "observed-result": "7.60 to 8.00"
  },
  {
    "compound": "C[C@H]1CCCN1Cc1coc(-c2ccc(Cn3ncc4cc(F)ccc43)cc2)n1 [Example 98]",
    "observed-result": "≥ 8.00"
  },
  {
    "compound": "CCN(CC)Cc1cnc(-c2ccc(Cn3cnc4ccccc43)cc2)o1 [Example 113]",
    "observed-result": "< 7.00"
  },
  {
    "compound": "F[C@H]1CCN(Cc2coc(-c3ccc(Cn4cnc5ccccc54)cc3)n2)C1 [Example 22]",
    "observed-result": "7.60 to 8.00"
  },
  {
    "compound": "Cn1c(CN2CCCC2)cnc1-c1ccc(F)cc1 [Example 145, fumarate salt]",
    "observed-result": "< 7.00"
  },
  {
    "compound": "C[C@@H]1CCCN1Cc1coc(-c2ccc(Cn3c(-c4ccccc4)nc4ccccc43)cc2)n1 [Example 119]",
    "observed-result": "7.60 to 8.00"
  },
  {
    "compound": "CN1CCN(Cc2coc(-c3ccc(-n4cnc5ccccc54)cc3)n2)CC1 [Example 41]",
    "observed-result": "< 7.00"
  }
]

---

Entries and their pKi
Biological target: histamine-3 (H3) receptor (Homo sapiens)
Experiment: Methyl Histamine Binding in Human Histamine-3 Receptor Cell Line
Conditions: membranes of stably transfected HEK293T cells, radioligand 1 nM, Ki from IC50 by Cheng-Prusoff
pKi: −log10 of the molar value. Structures can show the parent of a compound that is named as a salt.
measure-name: pKi

[
  {
    "compound": "CN(C)Cc1coc(-c2ccc(-c3nc4ccccc4n3C)cc2)n1",
    "measure-name": "pKi",
    "observed-result": "7.60 to 8.00"
  },
  {
    "compound": "c1ccc2c(c1)ncn2Cc1ccc(-c2nc(CN3CCCC3)cs2)cc1 [Example 71, Hydrochloride]",
    "measure-name": "pKi",
    "observed-result": "7.60 to 8.00"
  },
  {
    "compound": "C[C@H]1CCCN1Cc1coc(-c2ccc(-c3nc4ccccc4n3CC3CCC3)cc2)n1",
    "measure-name": "pKi",
    "observed-result": "≥ 8.00"
  },
  {
    "compound": "CC1CCCN1Cc1coc(-c2ccc(-n3cnc4ccccc43)cc2)n1 (stereo not drawn)",
    "measure-name": "pKi",
    "observed-result": "7.60 to 8.00"
  },
  {
    "compound": "c1ccc(-c2nc3ccccc3n2Cc2ccc(-c3nc(CN4CCCC4)co3)cc2)cc1",
    "measure-name": "pKi",
    "observed-result": "≥ 8.00"
  },
  {
    "compound": "c1ccc2c(c1)ncn2Cc1ccc(-c2nc(CN3CCOCC3)co2)cc1",
    "measure-name": "pKi",
    "observed-result": "< 7.00"
  },
  {
    "compound": "CCN(C)Cc1cnc(-c2ccc(Cn3cnc4ccccc43)cc2)o1",
    "measure-name": "pKi",
    "observed-result": "< 7.00"
  },
  {
    "compound": "C[C@@H]1CCCN1Cc1coc(-c2ccc(Cn3cnc4ccccc43)cc2)n1",
    "measure-name": "pKi",
    "observed-result": "≥ 8.00"
  },
  {
    "compound": "CC1CCCN(Cc2coc(-c3ccc(-n4cnc5ccccc54)cc3)n2)C1 (stereo not drawn)",
    "measure-name": "pKi",
    "observed-result": "≥ 8.00"
  }
]

Each recorded value in this set is attributed to patent US7803825B2.
